Test system: SK-MEL-2 melanoma
Test: NCI-60 one-dose screen, 48 h (100 = growth as untreated, 0 = no growth, -100 = all killed)
Details: 10 µM unless noted
Compounds without any hit were thinned out: in the full panel of roughly 83,000, 20% have a hit.
This section presents compounds with their documented growth values.
Form entry: value (%) — number only.

// worked examples, growth included
compound | units | growth
COC(=O)c1cc([N+](=O)[O-])cc([N+](=O)[O-])c1Cl | % | 87.4
CC(O)C(O)C(O)C(O)C(O)C(=O)NNc1ccccc1 (stereo not given) | % | 106
O=S(=O)(O)c1cnccn1 | % | 102

Then there is this compound:
Kindly indicate its recorded growth. Item: C[C@@]1(CO)[C@H](O)CC[C@@]2(C)[C@H]1CC[C@H]1C[C@@H]3C[C@@]12CC[C@@]3(O)COC(=O)CN
102

Cited source: PubChem BioAssay (NCI)
